Experiment: ABTS radical cation scavenging (decolorization) test
Format: biochemical
Settings: first replicate, 734 nm, 30 min; read-out: ABTS SC50(1)
Measurement Label: pEC50
# pEC50 = -log10(concentration in molar units)

// worked examples, pEC50 included
{"Compound": "CCCCCCCCCCCC(=O)OCCOC(=O)C(C)c1ccc(CC(C)C)cc1 (stereo not drawn)", "Measurement Label": "pEC50", "Result": 2.56}
{"Compound": "CC(C)Cc1ccc(C(C)C(=O)OCCOC(=O)C=Cc2ccccc2)cc1 (stereo not drawn)", "Measurement Label": "pEC50", "Result": 3.74}

pEC50 for O=C(OCCO)c1ccccc1O [Compound 7, 2-hydroxyethyl 2-hydroxybenzoate] is 3.68

* * *

Entries and their EC50 values follow.
Assay: ABTS radical cation scavenging (decolorization) test
Format: biochemical
Details: second replicate, 734 nm, 30 min; read-out: ABTS SC50(2)
Please give the number followed by its unit.

// worked examples, EC50 included
{"Molecule": "CC(C)Cc1ccc(C(C)C(=O)OCCOC(=O)C=Cc2ccccc2)cc1 (stereo not drawn)", "EC50": "180 µM"}
{"Molecule": "CCCCCCCCCCCC(=O)OCCOC(=O)C(C)c1ccc(CC(C)C)cc1 (stereo not drawn)", "EC50": "2810 µM"}

Consider the additional molecule presented here.
EC50 for CC(C)Cc1ccc(C(C)C(=O)O)cc1 (stereo not drawn) [Compound 1, ibuprofen, reference compound] is 200 µM

* * *

Experiment: ABTS radical cation scavenging (decolorization) test
Type: biochemical
Conditions: second replicate, 734 nm, 30 min; read-out: ABTS SC50(2)
Measurement Label: EC50 (µM)
Respond numerically; units are µM and should not be typed.

// worked examples, EC50 included
{"Compound": "CC(C)Cc1ccc(C(C)C(=O)OCCO)cc1 (stereo not drawn) [Compound 3]", "Value Unit": "µM", "EC50": 4110}
{"Compound": "O=C(OCCOC(=O)c1ccccc1O)c1ccccc1O [Compound 13, Ethane-1,2-diyl bis(2-hydroxybenzoate)]", "Value Unit": "µM", "EC50": 200}
{"Compound": "CCCCCCCCCCCC(=O)OCCOC(=O)c1ccccc1O [DEW4a]", "Value Unit": "µM", "EC50": 3300}
{"Compound": "O=C(/C=C/c1ccccc1)OCCOC(=O)c1ccccc1O [Compound 12]", "Value Unit": "µM", "EC50": 3600}
{"Compound": "CCCCCCCC/C=C\\CCCCCCCC(=O)OCCOC(=O)C(C)c1ccc(CC(C)C)cc1 (stereo not drawn) [Compound 5b]", "Value Unit": "µM", "EC50": 2110}

EC50 for O=C(OCCO)c1ccccc1O [Compound 7, 2-hydroxyethyl 2-hydroxybenzoate] is 210

EC50 for O=C(O)c1cc(O)c(O)c(O)c1 [gallic acid, reference compound] is 38

EC50 for O=C(O)/C=C/c1ccccc1 [Compound 11, cinnamic acid, reference compound] is 5980

EC50 for CC(C)Cc1ccc(C(=O)OCCOC(=O)C(C)c2ccc(CC(C)C)cc2)cc1 (stereo not drawn) [Compound 2] is 1730
